Entries annotated with measured growth inhibition
Assay: NCI Yeast Anticancer Drug Screen. Data for the rad50 strain (AID 155);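 note: 0% = growth of vehicle-only cultures of the same strain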
Conditions: S. cerevisiae rad50 strain growth inhibition; at 3.7 µM; stronger effect = higher value
This is part of a sample that, as a whole, favours compounds with a hit. Of some 79,000 tested, about 15% had one in any assay.
Parameter: growth inhibition (%)

{"columns": ["Molecule", "Parameter", "Units symbol", "Val"],
 "data": [
  ["COc1ccccc1C(=O)OCC1CCCN2CCCCC12 (configuration not stated)", "growth inhibition", "%", 8],
  ["CC1(C)[C@@H]2CC[C@]1(C)[C@H](OC(=O)CSC#N)C2", "growth inhibition", "%", 1],
  ["c1ccc2c(c1)-c1nc3ccccc3cc1C2N1CCOCC1 (configuration not stated)", "growth inhibition", "%", -1],
  ["O=C(CC(=O)n1nc(-c2ccccc2)c(N=Nc2ccccc2C(=O)O)c1-c1ccccc1)Nc1ccc(Cl)cc1", "growth inhibition", "%", 1],
  ["CSC1=NNC(SC)=NN1", "growth inhibition", "%", 0],
  ["CCS(=O)(=O)c1ccc(/C=C/C=N/NC(=S)NCC(C)C)cc1", "growth inhibition", "%", 3],
  ["CSC(=S)N/N=C(\\C)c1cccc(C)n1", "growth inhibition", "%", 2],
  ["Nc1ncncc1C(C1=C(O)COC1=O)C1=C(O)COC1=O", "growth inhibition", "%", 2],
  ["CN(C)C[C@H]1CC[C@@H](CN(C)C)C1=O", "growth inhibition", "%", 31],
  ["c1ccc2c(c1)sc1nc3ccncc3nc12", "growth inhibition", "%", 35],
  ["N#CC(C(=O)Nc1ccccc1)C1=C(Cl)C(=O)c2ccccc2C1=O (configuration not stated)", "growth inhibition", "%", 38],
  ["CCCCCCCC1(N=[N+]=[N-])C(=O)c2ccccc2N(C)C1=O (configuration not stated)", "growth inhibition", "%", 1]
]}

====

Assay: NCI Yeast Anticancer Drug Screen. Data for the sgs1 mgt1 strain (AID 161);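 note: 0% = growth of cultures given vehicle only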
Details: S. cerevisiae sgs1 mgt1 strain, at 50.0 µM
The panel holds about 79,000 compounds, 15% with a hit somewhere; the sample as a whole holds those more often. Activity calls are given as the source filed them. Cut-off read from the data, not from the text of the source: active = growth inhibition above about 70%; inactive = the rest.
Classes used: active, inactive

{"columns": ["Compound", "Qualitative label"],
 "data": [
  ["COC1C=COC2(C)Oc3c(C)c(O)c4c(c3C2=O)/C(=N/C2CCC(O)OC2C)C=C(NC(=O)/C(C)=C\\C(=O)C2CC2C(O)C(C)C(O)C(C)C(OC(C)=O)C1C)C4=O (stereo not given)", "inactive"],
  ["O=C(N=Nc1ccccc1Cl)NNc1ccccc1Cl", "inactive"],
  ["NC(N)=N/N=C\\c1c2ccccc2cc2ccccc12", "inactive"],
  ["CC(=O)Nc1ccc(SC(C)=O)cc1", "inactive"],
  ["COc1ccc(/C=C/C(=O)C(C)(C)Br)cc1", "active"]
]}

====

Assay: NCI Yeast Anticancer Drug Screen. Data for the rad52 strain (AID 147);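 note: 0% = growth of vehicle-treated control cultures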
Details: S. cerevisiae rad52 mutant growth inhibition; at 1.2 µM; stronger effect = higher value
About 79,000 compounds went through this panel and 15% of them were active in at least one assay; those are over-represented in the sample as a whole.

{"columns": ["Molecule", "growth inhibition (%)"],
 "data": [
  ["CCCCCCCCC/C=C/C=C/C(=O)NCC(=O)NC1C(O)C(O)C(Nc2ncnc3nc[nH]c23)OC1C(O)CO (stereo not given)", -19],
  ["CCCc1cc(C(=O)OCC)cc(CCC)c1O", -2],
  ["Cc1c(C(Cc2ccccc2N(C)C(=O)/C=C\\C(=O)O)c2c[nH]c3ccccc23)c2ccccc2n1C (stereo not given)", -5],
  ["Clc1cccc(C(Nc2nncs2)Nc2nncs2)c1Cl", -1],
  ["CC(/C=C/c1ccc(Cl)cc1)=N\\NC(=S)NCC(C)C", -1],
  ["O=CC=C(c1ccccc1)c1ccccc1", -2],
  ["CCOc1ccc2c(c1)c(CC(=O)O)cn2C", 0],
  ["O=C1CSC(/C=C/c2ccccc2)N1c1ccc(-c2ccc(-n3c(-c4ccccc4)nc4ccccc4c3=O)cc2)cc1 (stereo not given)", -2],
  ["CC(C)c1ccccc1NC(=O)/C(Cl)=C(\\Cl)C(=O)O", 0],
  ["C=CCC1=C(C)C(OC(=O)/C=C/c2ccccc2)CC1=O (stereo not given)", -4],
  ["CN(Cc1cnc2nc(N)nc(N)c2n1)c1ccc(C(=O)N[C@@H](CCC(=O)O)C(=O)O)cc1", -2],
  ["Cc1cc(CO)c(O)c(CNCc2cc(C)cc(CO)c2O)c1", 4],
  ["CC(C)C1=CCC2C(=C1)CCC1C(C)(C(=O)O)CCCC21C (stereo not given) (tested in a mixture with another compound)", 0],
  ["COc1ccccc1/C=C1\\Sc2scc(-c3cccc([N+](=O)[O-])c3)[n+]2C1=O", 31],
  ["COC(=O)C1=C(C)NC(C)=C(C(=O)OC)C1c1cccc(/[N+]([O-])=C/c2ccccc2)c1", 1],
  ["Clc1ccccc1C1OC1c1ccccc1Cl (stereo not given)", -29],
  ["CC(C)/C(Cl)=N\\OC(=O)Nc1ccc(F)cc1", 3],
  ["NC(N)=N/N=C\\c1c2ccccc2cc2ccccc12", -73],
  ["O=C1OC(CCl)CN1/N=C/c1ccc([N+](=O)[O-])o1 (stereo not given)", -36],
  ["O=C1C2CC[C@@H]3C(=O)C(Cl)(Cl)[C@@H]3CCC2C1(Cl)Cl (stereo not given in full)", 12],
  ["COC(=O)CSSCc1ccc([N+](=O)[O-])cc1", 3],
  ["CCCCCCCCNC(=O)C1=C(C)NC(C)=C(C(=O)NCCCCCCCC)C1", 0],
  ["O=C(Cc1csc2[n+]1C(=O)/C(=C/c1ccc(Cl)cc1)S2)Nc1ccccc1", 15],
  ["CC1(Cl)CC(O)C2(CC1Br)C1(C)OC1C1OC1(Br)C2(C)C (stereo not given)", 14],
  ["CCCN(CCC)CC(O)c1cc(-c2ccc(Cl)cc2)nc2c(C)c(Cl)ccc12 (stereo not given)", -2],
  ["NC(=S)N/N=C\\c1nccc2ccccc12", -10],
  ["O=C1C=CC(=O)c2c(O)c(Nc3ccc(OC(F)(F)F)cc3)c(Cl)c(O)c21", 9],
  ["O=C(O)c1ccccc1NC(=S)c1ccccc1", -5],
  ["CC[C@@]1(O)C(=O)OCc2c1cc1n(c2=O)Cc2cc3c(CN(C)C)c(O)ccc3nc2-1", 5],
  ["O=C(NCCCNCCCNC(=O)c1cc(-c2ccccc2)nc2ccccc12)c1cc(-c2ccccc2)nc2ccccc12", -4],
  ["CN(C)c1nc2sc3c(c2c(=O)o1)CCCC3", 2],
  ["OC1(c2ccccc2)CSC2=Nc3ccccc3C3CCN1N23 (stereo not given)", -41],
  ["O=C1C(=O)c2ccccc2C=C1[N+](=O)[O-]", 3],
  ["c1ccc2c(c1)sc1nc3ccncc3nc12", 5],
  ["N/C(=N\\OC(=O)NC(Cl)=C(Cl)Cl)c1cc(C(F)(F)F)cc(C(F)(F)F)c1", -14],
  ["CCCCCCCCCCNC(=O)OCC", 0],
  ["CCC(=O)Oc1c(Cl)cc(Cl)c2ccccc12", -2],
  ["O=C1c2ccccc2-c2nc3ccccc3nc21", -27],
  ["CC(C)OC(=O)Oc1ccccc1OC(=O)OC(C)C", -3],
  ["CC(C)(C)c1nc2c(o1)C(=O)c1ccccc1C2=O", -27],
  ["CN(C)C[C@H]1CC[C@@H](CN(C)C)C1=O", 17],
  ["CCN(CC)CC(O)c1ccc2ccc3ccccc3c2c1 (stereo not given)", 3],
  ["CC(C)NC(=O)OCc1c(COC(=O)NC(C)C)c(-c2ccc(Cl)c(Cl)c2)n2c1CCC2", -38],
  ["COc1ccc(C2c3cc4c(cc3OC(C)(O)C2C)OCO4)c(OC)c1 (stereo not given)", -1],
  ["CCOC(=O)c1cnc2c(C(F)(F)F)cccc2c1N=[N+]=[N-]", 3]
]}
